These measurements were taken from ChEMBL document CHEMBL4513216.

Measured cytotoxicity at 10 µM, listed per entry for reference.
- PROTOCOL_TEXT: Toxicity liver stage against HepG2, at 10uM
- Type: cell-based
- Set-up: test concentration 10 uM, cell line HepG2-A16-CD81EGFP
- PARTICULARS: human, HepG2-A16-CD81EGFP cells; read-out: INHIBITION
Reply numerically in %, unit not repeated.

Guide cases for cytotoxicity at 10 µM, answers given:
[[record]]
compound = "O=C(c1cccc2ncccc12)N1CCCN(c2cccnn2)CC1"
value_type = "cytotoxicity at 10 µM"
result_number = -2.08

[[record]]
compound = "CCS(=O)(=O)N1CCC2(CN(c3cc(OC)ncn3)C2)C1"
value_type = "cytotoxicity at 10 µM"
result_number = 0.325

[[record]]
compound = "Cc1ccc(CN2Cc3nnn(C)c3C(COCC(=O)N(C)C)C2)s1 (centres undefined)"
value_type = "cytotoxicity at 10 µM"
result_number = 10.1


Name the reported cytotoxicity at 10 µM value associated with the compound CCCN1CCN(Cc2cccc(OC(C)C)c2)[C@H]2CS(=O)(=O)C[C@H]21
4.77

Name the reported cytotoxicity at 10 µM value associated with the compound CCn1ncc2c1C(COC)CN(Cc1ccsc1)C2 (centres undefined)
-7.47

Name the reported cytotoxicity at 10 µM value associated with the compound Cc1ccccc1C(C(=O)N1CCN(C(=O)c2ccc[nH]2)CC1)N(C)C (centres undefined)
-7.98

Name the reported cytotoxicity at 10 µM value associated with the compound CC1(C)CCN1C(=O)c1cc(F)cc2[nH]cnc12
-7.09

Name the reported cytotoxicity at 10 µM value associated with the compound COCC1CCN(S(=O)(=O)N2C[C@@H](C)[C@](O)(C3CC3)C2)CC1
0.23

Name the reported cytotoxicity at 10 µM value associated with the compound CCNC(=O)NC(c1ccc(C)cc1)c1cccc(S(C)(=O)=O)c1 (centres undefined)
-5.82

---

- PROTOCOL_TEXT: Toxicity liver stage against HepG2, at 10uM
- Format: cell-based
- Design: test concentration 10 uM, cell line HepG2-A16-CD81EGFP
- PARTICULARS: human, HepG2-A16-CD81EGFP cells; read-out: INHIBITION
VALUE_TYPE: cytotoxicity at 10 µM (%)
Reply numerically in %, unit not repeated.

[[record]]
compound = "COCCN1CCC(CN(Cc2ccncc2)C2CCC2)CC1"
value_type = "cytotoxicity at 10 µM"
result_number = -2.33

[[record]]
compound = "Cc1nc(CN2CCCC(NCCOc3cccc(C#N)c3)C2)no1 (stereo not drawn)"
value_type = "cytotoxicity at 10 µM"
result_number = -8.36


Please examine the following record next.
Name the reported cytotoxicity at 10 µM value associated with the compound COc1cccc(OC2CN(C(=O)C3CCCN(C(=O)N(C)C)C3)C2)c1 (stereo not drawn)
0.754

---

- PROTOCOL_TEXT: Toxicity liver stage against HepG2, at 10uM
- Type: cell-based
- Parameters: test concentration 10 uM, cell line HepG2-A16-CD81EGFP
- PARTICULARS: human, HepG2-A16-CD81EGFP cells; read-out: INHIBITION
Measured cytotoxicity at 10 µM, listed per entry for reference.
Reply numerically in %, unit not repeated.

[[record]]
compound = "Cc1cc(C(=O)NCCN2CCC(C)CC2)nn1C(C)(C)C"
result_number = 13.3

[[record]]
compound = "O[C@@H]1CC(CNCC2CC2)(COc2cccnc2)C[C@@H]1O (stereo not given in full)"
result_number = -2.64

[[record]]
compound = "Cc1nc(C2CCCN(C(=O)c3ccc(OCC4CC4)cc3)C2)no1 (stereo not given)"
result_number = -7.69

[[record]]
compound = "CCn1nc2c(cc1=O)CN(Cc1nc3ccccc3c(=O)[nH]1)CC2"
result_number = -4.71


Please examine the following record next.
Name the reported cytotoxicity at 10 µM value associated with the compound O=C(NC[C@]12COC[C@H]1CN(CC1CCOCC1)C2)c1ccco1
-72.1
